Assignment: determine reported change in vivo at 6.2 mg/kg for the given molecules.
tested on: adult mongrel dogs; assay: Renal vasodilating activity in anesthetized dogs; assay type: in vivo, dog (adult mongrel); conditions: Canis lupus familiaris; 6.2 mg/kg intravenous, relative to controls; read-out: RBF, renal blood flow
# value in %; strip the unit string

// field: change in vivo at 6.2 mg/kg; key: "CCOc1cc2c(C)nc(O)c(NC(=O)NCc3ccccc3)c2cc1OC" ; value = 54

// field: change in vivo at 6.2 mg/kg; key: "CCOc1cc2c([N+](=O)[O-])c(O)nc(C)c2cc1OC" ; value = 61

// field: change in vivo at 6.2 mg/kg; key: COc1cc2c(C)nc(O)c(NC(C)=O)c2cc1OC [Compound BG, Hemihydrate] ; value = 39

// field: change in vivo at 6.2 mg/kg; key: "COc1cc2c(C)nc(O)c(NC(=O)Nc3cccc(Cl)c3)c2cc1OC" ; value = 30

// field: change in vivo at 6.2 mg/kg; key: "CCOc1cc2c(NC(=O)Nc3ccc(OC)cc3)c(O)nc(C)c2cc1OC" ; value = 35

// field: change in vivo at 6.2 mg/kg; key: "COc1cc2c(C)nc(O)c(NC(N)=O)c2cc1OC" ; value = 59

// field: change in vivo at 6.2 mg/kg; key: "COc1cc2c(C)nc(O)c(NC(=O)Nc3cccc(C(F)(F)F)c3)c2cc1OC" ; value = 23

// field: change in vivo at 6.2 mg/kg; key: "COc1cccc(NC(=O)Nc2c(O)nc(C)c3cc(OC)c(OC)cc23)c1" ; value = 58

// field: change in vivo at 6.2 mg/kg; key: "COc1cc2cnc(O)c(NC(C)=O)c2cc1OC" ; value = 30

// field: change in vivo at 6.2 mg/kg; key: "COC(=O)Nc1c(O)nc(C)c2cc(OC)c(OC)cc12" ; value = 30

Sourced from patent US4714705A
